Target: Btk (Homo sapiens, UniProt Q06187)
Sequence (Q06187 whole entry): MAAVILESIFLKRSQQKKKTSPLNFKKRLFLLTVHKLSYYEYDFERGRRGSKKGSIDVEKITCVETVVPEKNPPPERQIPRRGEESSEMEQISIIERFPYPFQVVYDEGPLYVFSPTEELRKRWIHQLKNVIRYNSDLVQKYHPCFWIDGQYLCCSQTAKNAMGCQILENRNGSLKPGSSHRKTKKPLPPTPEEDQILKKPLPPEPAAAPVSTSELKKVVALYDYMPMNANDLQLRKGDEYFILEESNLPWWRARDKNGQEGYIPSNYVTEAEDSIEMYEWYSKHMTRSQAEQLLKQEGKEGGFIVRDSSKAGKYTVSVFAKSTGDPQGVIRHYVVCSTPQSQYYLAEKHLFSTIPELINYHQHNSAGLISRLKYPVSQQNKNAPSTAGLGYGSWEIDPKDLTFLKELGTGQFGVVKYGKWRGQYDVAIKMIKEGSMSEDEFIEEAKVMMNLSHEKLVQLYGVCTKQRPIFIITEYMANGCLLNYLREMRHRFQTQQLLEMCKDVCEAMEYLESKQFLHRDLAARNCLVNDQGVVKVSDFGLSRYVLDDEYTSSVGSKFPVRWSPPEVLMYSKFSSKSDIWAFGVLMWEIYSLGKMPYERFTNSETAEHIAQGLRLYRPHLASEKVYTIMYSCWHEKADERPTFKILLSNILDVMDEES
Assay: Btk kinase activity, TR-FRET assay
Format: biochemical
Details: read-out: Btk (IC50)
measurement.name: IC50

Which measured IC50 value corresponds to CN(C/C=C/C(=O)N1CC[C@@H](Nc2n[nH]c3nccc(Oc4ccc(C(=O)Nc5cc(C6CC6)ccn5)cc4)c23)C1)C1CC1 [compound 60] ?
< 0.1 µM

Moving on to the next molecule: CN(C/C=C/C(=O)N1CC[C@@H](N2C(=O)CN(c3ccc(Oc4ccccc4)cc3)c3ccnc4[nH]nc2c34)C1)C1CC1 [compound 238]
0.1 to 1 µM

What do you have for Cc1ccnc(NC(=O)c2ccc(Oc3ccnc4[nH]nc(N[C@@H]5CCCN(C(=O)N(C)C)C5)c34)cc2)c1 [compound 106] ?
< 0.1 µM

Same lookup for C=CC(=O)N1CCC[C@@H](Nc2n[nH]c3nccc(Oc4ccc(-c5nc(C(F)(F)F)c[nH]5)cc4)c23)C1 [compound 154] , please.
< 0.1 µM

Ok, now CCC(=O)N1CC[C@@H](Nc2n[nH]c3nccc(Oc4ccc(C(=O)Nc5nc6ccccc6[nH]5)cc4)c23)C1 [compound 69]
0.1 to 1 µM

How about Cc1ccnc(NC(=O)c2ccc(Oc3ccnc4[nH]nc(N[C@@H]5CCCN(C(=O)c6ccc(F)cc6)C5)c34)cc2)c1 [compound 243] ?
< 0.1 µM

====

Target: Btk (Homo sapiens, UniProt Q06187)
Experiment: Btk kinase activity, TR-FRET assay
Format: biochemical
Settings: read-out: Btk (IC50)
pIC50: −log10 of the molar value.
Kindly supply the reported pIC50 values for the records listed here.

Requested read-out: pIC50. Entry: `CN(C)C/C=C/C(=O)N1CC[C@@H](Nc2n[nH]c3nccc(Oc4ccc(Oc5ccccc5)cc4)c23)C1`
> 7.00

Also `CC(C)NC(=O)Nc1ccc(Oc2ccnc3[nH]nc(N[C@@H]4CCCN(C(=O)/C=C/CN(C)C5CC5)C4)c23)cc1` ?
< 5.00

Consider next the compound `CC#CC(=O)N1CCC[C@@H](Nc2n[nH]c3nccc(Oc4ccc(C(=O)Nc5ncc(CC)s5)cc4)c23)C1` in the same way.
> 7.00

What would you report for `CN(C)C/C=C/C(=O)N1CC[C@@H](Nc2n[nH]c3nccc(Oc4cccc(Nc5ccncn5)c4)c23)C1` ?
< 5.00

====

Target: Lck (Homo sapiens, UniProt P06239)
Sequence (P06239 whole entry, species assumed): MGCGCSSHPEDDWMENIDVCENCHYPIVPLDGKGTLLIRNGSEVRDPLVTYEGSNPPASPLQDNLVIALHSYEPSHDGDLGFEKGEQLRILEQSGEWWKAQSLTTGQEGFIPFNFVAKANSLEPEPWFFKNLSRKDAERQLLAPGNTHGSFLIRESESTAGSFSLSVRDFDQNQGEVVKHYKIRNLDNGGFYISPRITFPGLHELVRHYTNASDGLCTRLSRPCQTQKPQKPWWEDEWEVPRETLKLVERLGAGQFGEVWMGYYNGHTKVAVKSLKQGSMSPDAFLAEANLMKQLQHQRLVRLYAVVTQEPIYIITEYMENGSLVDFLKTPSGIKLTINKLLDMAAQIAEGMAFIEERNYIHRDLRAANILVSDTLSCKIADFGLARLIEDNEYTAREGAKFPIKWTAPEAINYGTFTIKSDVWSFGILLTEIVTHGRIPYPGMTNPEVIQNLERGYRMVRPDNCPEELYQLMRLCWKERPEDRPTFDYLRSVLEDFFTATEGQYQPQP
Test: Lck kinase activity, TR-FRET assay
Type: biochemical
Conditions: read-out: LCK (IC50)
measurement.name: IC50

// fetch Lck (Homo sapiens, UniProt P06239) IC50 for `CN(C)C/C=C/C(=O)N1CC[C@@H](Oc2n[nH]c3nccc(Nc4cccc(Oc5ccccc5)c4)c23)C1`
100 to 1000 nM

Would you mind doing `CN1CCc2sc(NC(=O)c3ccc(Oc4ccnc5[nH]nc(N[C@@H]6CCCN(C(=O)/C=C/CN(C)C7CC7)C6)c45)cc3)nc2C1` as well?
> 10000 nM

Next compound: `CCNC(=O)N[C@H]1CCCN(c2n[nH]c3nccc(Oc4ccc(C(=O)Nc5cc(C(F)(F)F)ccn5)cc4)c23)C1`
> 10000 nM

And then `CCC(=O)N1CCC[C@@H](Nc2n[nH]c3nccc(Oc4ccc(-c5nc6cccc(C)c6o5)cc4)c23)C1` , what is it?
> 10000 nM

Please give the result for `CCNC(=O)N[C@@H]1CCCN(c2n[nH]c3nccc(Oc4ccc(C(=O)Nc5cc(C(F)(F)F)ccn5)cc4)c23)C1` too.
100 to 1000 nM

Same lookup for `Cc1ccnc(NC(=O)c2ccc(Oc3ccnc4[nH]nc(N[C@@H]5CCCN(C(=O)C6(C)CCN(C(=O)OC(C)(C)C)CC6)C5)c34)cc2)c1` , please.
1000 to 10000 nM

====

IC50, EGFR (Homo sapiens, UniProt P00533): measured values

// returns reported IC50 for input Cc1ccnc(NC(=O)c2ccc(Oc3ccnc4[nH]nc(N[C@@H]5CCCN(C(=O)C6(C)CCOCC6)C5)c34)cc2)c1 [compound 87]
> 10000 nM

Also COCC1(C(=O)N2CCC[C@@H](Nc3n[nH]c4nccc(Oc5ccc(C(=O)Nc6cc(C)ccn6)cc5)c34)C2)CCC1 [compound 99] ?
> 10000 nM

Please give the result for Cc1ccnc(NC(=O)c2ccc(Oc3ccnc4[nH]nc(N[C@@H]5CCCN(C(=O)C6CCN(C)CC6)C5)c34)cc2)c1 [compound 92] too.
1000 to 10000 nM

Subsequent entry: Cc1cc(Oc2ccccc2)ccc1Oc1ccnc2[nH]nc(N[C@@H]3CCCN(C(=O)/C=C/CN(C)C4CC4)C3)c12 [compound 169]
100 to 1000 nM

How about this compound: CN(C(=O)/C=C/CN(C)C1CC1)c1cccc(Nc2n[nH]c3nccc(Oc4ccc(Oc5ccccc5)cc4)c23)c1 [compound 38]
100 to 1000 nM

What do you get for Cc1ccnc(NC(=O)c2ccc(Oc3ccnc4[nH]nc(N[C@@H]5CCCN(C(=O)C6CCNCC6)C5)c34)cc2)c1 [compound 96] ?
1000 to 10000 nM

Param item: C=CC(=O)N1CCC[C@@H](Nc2n[nH]c3nccc(Oc4ccc(-c5nc(C(F)(F)F)c[nH]5)cc4)c23)C1 [compound 154]
1000 to 10000 nM

Another compound to check: CC#CC(=O)N1CCC[C@@H](Nc2n[nH]c3nccc(Oc4ccc(C(=O)Nc5cc(C(F)(F)F)ccn5)cc4)c23)C1 [compound 205]
1000 to 10000 nM

Another compound: CN1CCc2sc(NC(=O)c3ccc(Oc4ccnc5[nH]nc(N[C@@H]6CCCN(C(=O)/C=C/CN(C)C7CC7)C6)c45)cc3)nc2C1 [compound 137]
> 10000 nM

Try the compound Cc1ccnc(NC(=O)c2ccc(Oc3ccnc4[nH]nc(N[C@@H]5CCCN(C(=O)[C@@H]6CCCO6)C5)c34)cc2)c1 (single isomer, unassigned) [compound 94]
1000 to 10000 nM

Let us now turn to CN(C)C/C=C/C(=O)N1CCC[C@@H](Nc2n[nH]c3nccc(Oc4cccc(Oc5ccccc5)c4)c23)C1 [compound 13]
100 to 1000 nM

Field entry: Cc1ccnc(NC(=O)c2ccc(Oc3ccnc4[nH]nc(NC5CCN(C#N)CC5)c34)cc2)c1 [compound 278]
1000 to 10000 nM

Another: N#C/C(=C\c1ccccn1)C(=O)N1CC[C@@H](Nc2n[nH]c3nccc(Oc4ccc(Oc5ccccc5)cc4)c23)C1 [compound 26]
100 to 1000 nM

====

Target: Lck (Homo sapiens, UniProt P06239)
Experiment: Lck kinase activity, TR-FRET assay
Type: biochemical
Conditions: read-out: LCK (IC50)
measurement.name: IC50

Lck (Homo sapiens, UniProt P06239) / IC50 / `C=CC(=O)N1CCC[C@@H](Oc2n[nH]c3nccc(Nc4cccc(C(=O)Nc5ccc(C(C)C)c(C)c5)c4)c23)C1` : value?
1000 to 10000 nM

Also `CN1CCC(C(=O)N2CCC[C@@H](Nc3n[nH]c4nccc(Oc5ccc(-c6nc7ccccc7s6)cc5)c34)C2)CC1` , if possible.
100 to 1000 nM

// query: `Cc1ccnc(NC(=O)c2ccc(Oc3ccnc4[nH]nc(N[C@@H]5CCCN(C(=O)C6(C)CC6)C5)c34)cc2)c1`
100 to 1000 nM

Next up: `CCC(=O)N1CC[C@@H](Nc2n[nH]c3nccc(Nc4ccc(C(=O)Nc5cc(C(F)(F)F)ccn5)cc4)c23)C1`
100 to 1000 nM

====

Biological target: Lck (Homo sapiens, UniProt P06239)
Assay: Lck kinase activity, TR-FRET assay
Assay type: biochemical
measurement.name: IC50

Given the compound Cc1ccnc(NC(=O)c2ccc(Oc3ccnc4[nH]nc(N[C@@H]5CCCN(C(=O)Oc6ccccc6)C5)c34)cc2)c1 [compound 93] , what is its reported IC50?
1 to 10 µM

====

Please respond with reported pIC50 for every item in the list.
Target: Lck (Homo sapiens)
Assay: Lck kinase activity, TR-FRET assay
Type: biochemical
Conditions: read-out: LCK (IC50)
pIC50: −log10 of the molar value.

Name the recorded pIC50 for C=CC(=O)N1CCC[C@@H](Nc2n[nH]c3nccc(Nc4cccc(C(=O)Nc5ccc(C(C)C)c(C)c5)c4)c23)C1 [compound 129] .
5.00 to 6.00

Same again, this time with Cc1ccnc(NC(=O)c2ccc(Oc3ccnc4[nH]nc(N[C@@H]5CCCN(C(=O)C#CCO)C5)c34)cc2)c1 [compound 282]
6.00 to 7.00

# iterate: Cc1cnc(NC(=O)c2ccc(Oc3ccnc4[nH]nc(N[C@@H]5CCCN(C(=O)/C=C/CN(C)C6CC6)C5)c34)cc2)s1 [compound 142]
5.00 to 6.00

====

Biological target: Btk (Homo sapiens)
Assay: Btk kinase activity, TR-FRET assay
Type: biochemical
Conditions: read-out: Btk (IC50)
measurement.name: IC50

Please report the recorded IC50 for Cc1ccnc(NC(=O)c2ccc(Oc3ccnc4[nH]nc(N[C@@H]5CCCN(C(=O)C6(C#N)CC6)C5)c34)cc2)c1 [compound 101] .
< 100 nM

One more molecule: CN(C)C/C=C/C(=O)N1CC[C@@H](Nc2n[nH]c3nccc(Oc4ccc(Oc5ccccc5)cc4C(N)=O)c23)C1 [compound 41]
100 to 1000 nM

Then CC1(C(=O)N2CCC[C@@H](Nc3n[nH]c4nccc(Oc5ccc(C(=O)Nc6nc7ccccc7s6)cc5)c34)C2)COC1 [compound 226] ?
< 100 nM

Now the molecule CN1CCC(C(=O)N2CCC[C@@H](Nc3n[nH]c4nccc(Oc5ccc(-c6nc7ccccc7s6)cc5)c34)C2)CC1 [compound 197]
100 to 1000 nM

Would you kindly repeat that for CC#CC(=O)N1CCC[C@@H](Nc2n[nH]c3nccc(Oc4ccc(C(=O)Nc5cc(C)n(C)n5)cc4)c23)C1 [compound 185] ?
100 to 1000 nM

What about Cc1ccnc(NC(=O)c2ccc(Oc3ccnc4[nH]nc(N[C@@H]5CCCN(C(=O)C(N)=O)C5)c34)cc2)c1 [compound 270] ?
< 100 nM

Item: CN(C/C=C/C(=O)Nc1ccccc1Nc1n[nH]c2nccc(Oc3ccc(Oc4ccccc4)cc3)c12)C1CC1 [compound 57]
> 10000 nM

Now consider COc1ccc(C(=O)N2CCC[C@@H](Nc3n[nH]c4nccc(Oc5ccc(C(=O)Nc6cc(C)ccn6)cc5)c34)C2)cc1 [compound 246] .
< 100 nM

Continue with CN(C)C/C=C/C(=O)N1CC[C@@H](Nc2n[nH]c3nccc(Oc4ccc(Cl)cc4)c23)C1 [compound 3]
< 100 nM

Another: CC#CC(=O)N1CCC[C@@H](Nc2n[nH]c3nccc(Oc4ccc(C(=O)N5CCCC(C(F)(F)F)C5)cc4)c23)C1 (some centres unmarked) [compound 163]
100 to 1000 nM

How about this molecule: Cc1ccnc(NC(=O)c2ccc(Oc3ccnc4[nH]nc(N[C@@H]5CCCN(C(=O)C6(C)COC6)C5)c34)cc2)c1 [compound 86]
< 100 nM

Repeat with CCC(=O)N1CC[C@@H](Nc2n[nH]c3nccc(Oc4ccc(C(=O)Nc5cc(C(F)(F)F)ccn5)cc4)c23)C1 [compound 66]
< 100 nM

Likewise for CN(C/C=C/C(=O)N1CCCC[C@H]1CNc1n[nH]c2nccc(Oc3ccc(Oc4ccccc4)cc3)c12)C1CC1 [compound 37] ?
< 100 nM

For Cc1ccnc(NC(=O)c2ccc(Oc3ccnc4[nH]nc(N[C@@H]5CCCN(C#N)C5)c34)cc2)c1 [compound 276] then?
< 100 nM
